system: Streptococcus gordonii; experiment: Antibacterial activity against Streptococcus gordonii DL1 preincubated for 24 hrs under anaerobic condition followed by incubation in columbia petri plates for 24 hrs by broth microdilution method; format: functional
Consider the cut-off 9 µg/mL. If the recorded MIC is strictly smaller, the label is YES; if not, the label is NO.

Reference set, count: 3
> print(dat)
                         structure.notation             test.target  label.value
1  C[C@H]1c2cccc(O)c2C(=O)C2=C(O)[C@]3(O)C(=O)C(C(N)=O)=C(O)[C@@H](N(C)C)[C@@H]3[C@@H](O)[C@@H]21.O  Streptococcus gordonii          YES
2       CCCCCCCCC[C@@H]1OC(=O)C(C)=C1C(=O)O  Streptococcus gordonii           NO
3  CCCCCCCCCCCCCCC[C@@H]1OC(=O)C(C)=C1C(=O)O  Streptococcus gordonii           NO

Ask: For this compound, is MIC lower than 9 µg/mL? C=C[C@H]1CC(=O)O[C@@H]1CCCCCCCCCCCCC
Result: NO

Ask: Criterion: MIC strictly below 9 µg/mL. Is it met by C=C[C@H]1CC(=O)O[C@@H]1CCCCCCCCC ?
Result: NO

Ask: Please let me know if CCCCCCCCC[C@H]1OC(=O)C(C)=C1C(=O)O shows MIC below 9 µg/mL.
Result: NO

Ask: API: query returns whether the compound falls strictly under 9 µg/mL in MIC. Query: CCCCCCCCCCCCC[C@H]1OC(=O)C[C@H]1O
Result: NO

###

assay: Cytotoxicity against human Ca9-22 cells assessed as cell viability at MIC after 24 hrs by MTT assay relative to control; type: toxicity, cell-based; details: read-out: Activity
readout_label: viability at 24 h (%)
Please state the figure in %; there is no need to write the unit.

> print(dat)
                         structure.notation      readout.label  unit.text  val
1  CCCCCCCCCCCCCCCC[C@@H]1OC(=O)C(C)=C1C(=O)O  viability at 24 h          %   96

--- query ---
Recorded result, CCCCCCCCCCCCCCC[C@@H]1OC(=O)C(C)=C1C(=O)O , viability at 24 h: 100

###

tested on: Streptococcus gordonii; assay: Antibacterial activity against Streptococcus gordonii DL1 preincubated for 24 hrs under anaerobic condition followed by incubation in columbia petri plates for 24 hrs by broth microdilution method; assay type: functional
readout_label: MIC (µg/mL)
Lab book: enter the figure in µg/mL, no units written.

Here are 5 molecules together with their reported answers.
> print(dat)
                         structure.notation  readout.label   val
1    CCCCCCCCCCCCC[C@H]1OC(=O)C(C)=C1C(=O)O            MIC  4.69
2  CCCCCCCCCCCCCCCC[C@@H]1OC(=O)C(C)=C1C(=O)O            MIC  9.38
3   CCCCCCCCCCCCC[C@@H]1OC(=O)C(C)=C1C(=O)O            MIC  4.69
4             CCCCCCCCC[C@H]1OC(=O)C[C@H]1O            MIC   150
5                CCCCCCCCC[C@@H]1C=CC(=O)O1            MIC   150

Briefly, MIC measured for CCCCCCCCCCCCC[C@@H]1C=CC(=O)O1 : 75
